Cited source: patent US6124449

Quick list: Ki per entry.
molecular target: TGF-beta1 (hTGF-beta1) (Homo sapiens, UniProt P01137 P01137:279-390); assay: cell_activity; MLEC assay; details: tags: R&D Systems; biotinylated form (NFTG0) used for BIAcore; chain copies: 2
Sequence (P01137 279-390, one chain of several): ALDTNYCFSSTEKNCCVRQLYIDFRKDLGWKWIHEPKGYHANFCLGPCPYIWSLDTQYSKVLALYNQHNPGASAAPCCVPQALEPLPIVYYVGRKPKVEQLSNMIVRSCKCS
Just the number in nM, nothing appended.

{"columns": ["BINDER", "Ki / nM"],
 "data": [
  ["40-19 (ssRNA, 2'-F C and U) RNA: GGGAGGACGAUGCGGUUAGCGCGAGUUCAACACCGCAUGUGAUUCUUUCGCCUCCCAGACGACUCGCCCGA", 28],
  ["40-16 (ssRNA, 2'-F C and U) RNA: GGGAGGACGAUGCGGUUAGGGGCGUCAACACCGCUAUUACAUCUUUCGCCUCCCCAGACGACUCGCCCGA", 0.6]
]}

Please examine the following record next.
Input line: # query: Ki of entry 40-56 (ssRNA, 2'-F C and U) RNA: GGGAGGACGAUGCGGUUAGGGCGUCAACACCGCUAUUACAACUUUCGCCUCCCCAGACGACUCGCCCGA
Output line: 7.4
